Biological target: T1, human Nectin-4 extracellular antigen hNectin-4-His (human, UniProt Q96NY8 32-349)
T1 construct: C-terminal 8xHis tag included
T1 sequence: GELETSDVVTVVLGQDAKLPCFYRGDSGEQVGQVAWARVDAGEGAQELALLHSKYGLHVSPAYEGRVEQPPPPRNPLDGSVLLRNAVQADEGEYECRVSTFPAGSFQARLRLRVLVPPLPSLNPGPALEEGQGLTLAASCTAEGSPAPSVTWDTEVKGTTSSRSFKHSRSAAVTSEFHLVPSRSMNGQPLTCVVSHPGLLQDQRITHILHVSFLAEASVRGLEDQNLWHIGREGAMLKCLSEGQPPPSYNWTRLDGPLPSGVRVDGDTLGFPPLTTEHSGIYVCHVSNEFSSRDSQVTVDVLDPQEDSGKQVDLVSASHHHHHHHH
Assay: ELISA, phage scFv supernatant 1:50
measurement name: OD value (OD)
Answers are plain numbers, in OD.

INSERT INTO results (binder, measurement_name, unit_spec, assay_value) VALUES
  ('1G8-1C12 scFv (scFv, V domains shown, phage clone supernatant) VH: EVQLVESGGGLVQPGGSLRLSCAASGGSFYGFGMSWVRQAPGKGLEWVSGIYSHDADKRYADSVKGRFTISRDNSKNTLYLQMNSLRAEDTAVYYCARQTEDRSYGYDLDYWGQGTLVTVSS VL: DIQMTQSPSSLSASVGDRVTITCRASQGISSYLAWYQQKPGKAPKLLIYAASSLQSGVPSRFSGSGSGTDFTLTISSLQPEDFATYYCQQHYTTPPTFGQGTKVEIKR', 'OD value', 'OD', 1.42);

For record 10F4-1E1 scFv (scFv, V domains shown, phage clone supernatant) VH: EVQLVESGGGLVQPGGSLRLSCAASGDIFGNYWMSWVRQAPGKGLEWVSSIDASSGNRFYADSVKGRFTISRDNSKNTLYLQMNSLRAEDTAVYYCAREYSDVVDYVSVRTPLDYWGQGTLVTVSS VL: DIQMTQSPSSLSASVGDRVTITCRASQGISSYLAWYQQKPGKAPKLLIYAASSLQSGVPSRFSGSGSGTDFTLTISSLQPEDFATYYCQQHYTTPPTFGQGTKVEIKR the listed OD value is 1.63
